// values below are IC50; system is Poly [ADP-ribose] polymerase 2 (Mus musculus, UniProt O88554)
Sequence (O88554 whole entry): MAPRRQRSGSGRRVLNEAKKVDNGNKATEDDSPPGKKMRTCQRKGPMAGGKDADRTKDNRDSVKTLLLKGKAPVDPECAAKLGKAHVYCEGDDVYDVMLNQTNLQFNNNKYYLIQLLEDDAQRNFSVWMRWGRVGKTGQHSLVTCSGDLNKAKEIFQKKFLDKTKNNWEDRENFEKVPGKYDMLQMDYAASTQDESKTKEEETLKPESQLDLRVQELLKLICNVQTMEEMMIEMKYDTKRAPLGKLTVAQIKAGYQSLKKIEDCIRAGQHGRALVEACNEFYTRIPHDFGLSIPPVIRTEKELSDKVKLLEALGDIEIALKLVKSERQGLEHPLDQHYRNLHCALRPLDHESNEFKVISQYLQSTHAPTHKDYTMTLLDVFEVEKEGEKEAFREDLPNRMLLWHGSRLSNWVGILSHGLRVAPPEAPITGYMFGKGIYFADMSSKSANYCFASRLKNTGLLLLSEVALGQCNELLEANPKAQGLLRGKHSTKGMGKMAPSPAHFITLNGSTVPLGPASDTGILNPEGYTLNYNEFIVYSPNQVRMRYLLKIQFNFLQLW
result_type: IC50 (nM)

Some molecules with known IC50 results, for comparison:
> print(dat)
                  smiles.representation  result.type  value
1  Cc1ccc(-c2cc3c(N)cccc3c(=O)[nH]2)cc1         IC50    120
2            CCc1cc2c(N)cccc2c(=O)[nH]1         IC50    830

A. COc1ccc(-c2cc3c(N)cccc3c(=O)[nH]2)cc1
B. Nc1cccc2c(=O)[nH]c(-c3ccc(C(F)(F)F)cc3)cc12
*Q* Please state the entry with greater IC50 among A and B . Indicate your choice by writing its label.
*A* A
(A: 730 nM, B: 170 nM)

Source listed as ChEMBL document CHEMBL2413011.
